# procedure_summary: viability loss of mouse 3T3 cells – cell-based, cherry-pick, single point, set 2, cytotoxicity control, confirmation (AID 651744);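 note: 0% = median of neutral control wells and 100% = median of positive control wells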
# test_settings: NIH/3T3 viability, CellTiter-Glo ATP luminescence, 90 h; at 24.9 µM; active compounds read high
The campaign covered roughly 5,600 compounds. About 3,100 (55%) were called active. Roughly 3% stayed inconclusive and do not appear here. The set was probably picked from earlier hits. Only a sample is shown.
endpoint: inhibition (%)

INSERT INTO measurements (molecular_string, endpoint, observed_result) VALUES
  ('O=C(c1ccccn1)N1CC[C@@H]2[C@H]1c1cc(-c3ccccc3)ccc1N[C@@H]2CO', 'inhibition', 7.5),
  ('N#Cc1ccc(-c2ccc3c(c2)[C@@H]2[C@@H](CCN2C(=O)Cc2ccncc2)[C@@H](CO)N3)cc1', 'inhibition', 14.4),
  ('Cc1noc(C)c1S(=O)(=O)Nc1ccc2c(c1)C(=O)N([C@@H](C)CO)C[C@@H](C)[C@H](CN(C)S(=O)(=O)c1ccc(Cl)cc1)OCCCC[C@H](C)O2', 'inhibition', -2.59),
  ('CNC[C@H]1OCCCC[C@@H](C)Oc2ccc(NS(C)(=O)=O)cc2C(=O)N([C@H](C)CO)C[C@H]1C', 'inhibition', -29.3),
  ('COc1ccc(CN(C)C[C@H]2OCCCC[C@H](C)Oc3ccc(NC(=O)Nc4ccc5c(c4)OCO5)cc3C(=O)N([C@H](C)CO)C[C@@H]2C)cc1', 'inhibition', 103),
  ('CNC[C@@H]1Oc2cc(C#CCC3CCCC3)ccc2S(=O)(=O)N([C@H](C)CO)C[C@H]1C', 'inhibition', 105),
  ('C[C@@H]1CN([C@H](C)CO)S(=O)(=O)c2ccc(C#CCC3CCCC3)cc2O[C@H]1CN(C)C(=O)CC1CC1', 'inhibition', 103),
  ('CN1c2ccc(-c3ccccc3)cc2[C@@H]2[C@@H](CCN2C(=O)c2ccncc2)[C@@H]1CO', 'inhibition', 18.7);

====

# procedure_summary: viability loss of mouse 3T3 cells – cell-based, cherry-pick, single point, set 2, cytotoxicity control, confirmation (AID 651744);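 note: 0% = median of neutral control wells and 100% = median of positive control wells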
# test_settings: NIH/3T3 viability, CellTiter-Glo ATP luminescence, 90 h; at 24.9 µM
The campaign covered roughly 5,600 compounds. About 3,100 (55%) were called active. Another 3% or so got no clear call; they are omitted.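 The calls were made as follows: active = mean loss of cell viability signal at or above a set limit, and enough replicates individually reaching it; inconclusive = meets only the mean limit or only the replicate share; inactive = meets neither condition.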 The set was probably picked from earlier hits. A selection follows.
Outcome codes: active, inactive

INSERT INTO measurements (molecular_string, category_label) VALUES
  ('CS(=O)(=O)N1[C@@H](C#N)[C@H](c2ccc(C#CC3CCCCC3)cc2)[C@@H]1CO', 'active'),
  ('CCc1cnc(N2[C@H](C#N)[C@H](c3ccc(C4=CCCC4)cc3)[C@@H]2CO)s1', 'inactive'),
  ('CN1C(=O)c2cc(NC(=O)c3cnccn3)ccc2OC[C@@H]2O[C@H](CC(=O)N[C@@H]3CCN(Cc4ccccc4)C3)CC[C@@H]21', 'inactive'),
  ('C[C@@H]1CCCCO[C@@H](CN(C)S(=O)(=O)c2ccc(Cl)cc2)[C@H](C)CN([C@@H](C)CO)C(=O)c2cc(NC(=O)Cc3ccccc3)ccc2O1', 'inactive'),
  ('C[C@@H]1CN([C@@H](C)CO)C(=O)c2cc(C#CC3CCCCC3)cnc2O[C@H]1CN(C)S(=O)(=O)c1ccccc1', 'active'),
  ('C[C@@H]1CN([C@H](C)CO)S(=O)(=O)c2ccc(C#CC3CCCC3)cc2O[C@@H]1CN(C)C(=O)Cc1ccncc1', 'active'),
  ('C[C@H]1CN([C@@H](C)CO)S(=O)(=O)c2ccc(C#CC3CCCC3)cc2O[C@H]1CN(C)C(=O)Cc1ccncc1', 'active');
